# assay remarks: TNF-a-driven NF-kB reporter inhibitors, primary screen, selectivity assay for NOD1/NOD2 signaling inhibitor project, cell-based, HEK293T NF-kB-Luc, luminescence (AID 1852)
# experimental setup: TNF-a induced, 14 h, at 4 µM, stronger effect = higher value
Hit rate of the full screen: of about 2,500 compounds, about 1,100 (44%) were called active. So high a share suggests a set chosen from earlier hits. The list shows a part of the results.
readout: inhibition

COc1ccc(C(=O)n2cc(C(=O)c3cc(C)ccc3O)cn2)cc1OC
36.5% (inactive)

# context switch: different molecule, same inhibition
Reported inhibition for "Cc1nc(Sc2ccc(Br)cc2)c(C#N)c(C)c1[N+](=O)[O-]" : what is it?
-8.7% (inactive)
